assay: Hygroscopicity study (Chinese Pharmacopoeia 2015, 9103); assay type: physicochemical; settings: after 24 hours
valueKind: Conclusion (hygroscopicity)

compound | testResult
CC[C@@H]([C@H](C)OP(=O)(O)O)n1ncn(-c2ccc(N3CCN(c4ccc(OC[C@@H]5CO[C@@](Cn6cncn6)(c6ccc(F)cc6F)C5)cc4)CC3)cc2)c1=O [Example 3] | No hygroscopicity
CC[C@@H]([C@H](C)OP(=O)(O)O)n1ncn(-c2ccc(N3CCN(c4ccc(OC[C@@H]5CO[C@@](Cn6cncn6)(c6ccc(F)cc6F)C5)cc4)CC3)cc2)c1=O [Example 1, Posaconazole Phosphate Monocholinate] | No hygroscopicity
CC[C@@H]([C@H](C)OP(=O)(O)O)n1ncn(-c2ccc(N3CCN(c4ccc(OC[C@@H]5CO[C@@](Cn6cncn6)(c6ccc(F)cc6F)C5)cc4)CC3)cc2)c1=O.CNC[C@H](O)[C@@H](O)[C@H](O)[C@H](O)CO [Comparative Example 4] | Slight hygroscopicity
CC[C@@H]([C@H](C)OP(=O)(O)O)n1ncn(-c2ccc(N3CCN(c4ccc(OC[C@@H]5CO[C@@](Cn6cncn6)(c6ccc(F)cc6F)C5)cc4)CC3)cc2)c1=O.N=C(N)NCCC[C@H](N)C(=O)O [Comparative Example 5, Posaconazole Phosphate Monoarginine Salt] | Slight hygroscopicity
